# Target or test system: YSK4 (human) (UniProt Q56UN5)
# Sequence (Q56UN5 whole entry, looked up): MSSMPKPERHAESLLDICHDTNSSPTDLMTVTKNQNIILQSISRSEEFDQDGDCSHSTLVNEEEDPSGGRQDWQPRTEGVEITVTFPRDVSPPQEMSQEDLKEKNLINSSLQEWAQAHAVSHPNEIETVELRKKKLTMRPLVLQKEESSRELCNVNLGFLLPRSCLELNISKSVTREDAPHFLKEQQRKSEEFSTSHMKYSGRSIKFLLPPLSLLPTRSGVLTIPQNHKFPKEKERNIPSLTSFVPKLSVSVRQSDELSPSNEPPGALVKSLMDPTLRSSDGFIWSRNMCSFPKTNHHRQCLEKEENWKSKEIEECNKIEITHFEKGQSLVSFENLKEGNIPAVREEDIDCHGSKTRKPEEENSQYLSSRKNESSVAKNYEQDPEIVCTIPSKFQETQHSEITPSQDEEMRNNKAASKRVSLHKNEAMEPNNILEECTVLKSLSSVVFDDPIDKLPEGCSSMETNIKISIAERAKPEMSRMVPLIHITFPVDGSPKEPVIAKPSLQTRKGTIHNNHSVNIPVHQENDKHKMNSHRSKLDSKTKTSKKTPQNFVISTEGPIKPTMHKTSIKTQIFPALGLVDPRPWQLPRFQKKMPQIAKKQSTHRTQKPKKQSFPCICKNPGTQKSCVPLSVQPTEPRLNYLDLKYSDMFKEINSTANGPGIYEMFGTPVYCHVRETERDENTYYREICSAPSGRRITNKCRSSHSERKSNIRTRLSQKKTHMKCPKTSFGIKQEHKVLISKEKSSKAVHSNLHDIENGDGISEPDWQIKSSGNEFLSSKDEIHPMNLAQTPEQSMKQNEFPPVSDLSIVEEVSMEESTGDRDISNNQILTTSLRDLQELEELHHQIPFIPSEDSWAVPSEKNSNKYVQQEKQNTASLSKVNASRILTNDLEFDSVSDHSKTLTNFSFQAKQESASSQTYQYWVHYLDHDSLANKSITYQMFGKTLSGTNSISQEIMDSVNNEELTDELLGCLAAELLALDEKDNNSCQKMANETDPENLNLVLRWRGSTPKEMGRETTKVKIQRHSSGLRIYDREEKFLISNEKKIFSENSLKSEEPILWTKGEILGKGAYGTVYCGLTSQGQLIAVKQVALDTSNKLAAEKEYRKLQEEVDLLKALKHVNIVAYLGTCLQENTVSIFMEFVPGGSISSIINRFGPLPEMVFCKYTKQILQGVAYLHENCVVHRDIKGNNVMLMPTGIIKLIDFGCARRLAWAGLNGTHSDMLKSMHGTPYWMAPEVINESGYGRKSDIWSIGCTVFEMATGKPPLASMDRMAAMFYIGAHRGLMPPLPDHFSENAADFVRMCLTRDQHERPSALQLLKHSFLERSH
# Test details: KINOMEscan competition binding
# Particulars: compound 10.0 µM
hey, just use 1.0 if measured kinase still bound, per cent of control is less than 60%, otherwise 0.0

Example entries begin here.
- N#Cc1c(NC(=O)c2cccc3ccccc23)sc2c1CCCC2: 0.0
- C=CC(=O)Nc1cc(NC(=O)c2ccc(C)c(NC(=O)c3ccno3)c2)cc(C(F)(F)F)c1: 0.0

Is the reported kinase still bound, per cent of control for O=C(O)c1ccc(Nc2ncc3c(n2)-c2ccc(Cl)cc2C(c2c(F)cccc2F)=NC3)cc1 strictly below 60%? 0.0

Determine if COc1cc(C(=O)NC2CCN(C)CC2)ccc1Nc1ncc2c(n1)N(C1CCCC1)CCC(=O)N2C(C)C shows kinase still bound, per cent of control strictly lower than 60%. 0.0

###

In this section, each of the molecules is paired with its reported kinase still bound, per cent of control.
# Target or test system: RET (human)
# Test details: KINOMEscan competition binding
# Particulars: compound 10.0 µM

Example cases with answers are listed next.
* COc1cc(C(=O)NC2CCN(C)CC2)ccc1Nc1ncc2c(n1)N(C1CCCC1)C(C)CC(=O)N2C (configuration not stated) | 100%
* COc1cc(C(=O)NC2CCN(C)CC2)ccc1Nc1ncc2c(n1)N(C1CCCC1)CCC(=O)N2C(C)C | 100%
* C=CC(=O)Nc1cccc(Oc2nc(Nc3ccc(N4CCN(C)CC4)cc3OC)ncc2Cl)c1 | 100%
* Nc1ccc(-c2ccc3ncc4ccc(=O)n(-c5cccc(C(F)(F)F)c5)c4c3c2)cn1 | 100%
* Cc1cc([C@@H](C)Nc2ccccc2C(=O)O)c2nc(N3CCOCC3)cc(=O)n2c1 | 100%
* OCCCNc1cc(-c2ccnc(Nc3cccc(Cl)c3)n2)ccn1 | 100%
* CC[C@@H]1C(=O)N(C)c2cnc(Nc3ccc(C(=O)NC4CCN(C)CC4)cc3OC)nc2N1C1CCCC1 | 100%
* C=CC(=O)Nc1cccc(Nc2nc(N[C@H]3CC[C@H](N(C)C)CC3)nc3c2ncn3C(C)C)c1 | 73%
* Cc1ccc2nc(NCCN)c3ncc(C)n3c2c1 | 100%
* O=C(NOC[C@H](O)CO)c1ccc(F)c(F)c1Nc1ccc(I)cc1F | 90%

For CCC(=O)N1CCN(c2ccc(-n3c(=O)ccc4cnc5ccc(-c6cnc7ccccc7c6)cc5c43)cc2C(F)(F)F)CC1 the molecule record lists kinase still bound, per cent of control as 44%

Lab note: measured kinase still bound, per cent of control of O=C1Nc2ccc(I)cc2/C1=C/c1cc(Br)c(O)c(Br)c1 was 100%

For record CCN1CCN(Cc2ccc(Nc3ncc4c(n3)N(C)c3ccccc3C(=O)N4C)cc2C(F)(F)F)CC1 the listed kinase still bound, per cent of control is 2.4%

So for Cc1ccc(C(=O)Nc2cccc(C(F)(F)F)c2)cc1Nc1cncc(C(N)=O)c1 , the logged kinase still bound, per cent of control turned out to be 100%

The measured kinase still bound, per cent of control associated with O=C(O)c1ccc(Nc2ncc3c(n2)-c2ccc(Cl)cc2C(c2c(F)cccc2F)=NC3)cc1 reads 59%

So for Cc1ccc(NC(=O)c2cccc(C(C)(C)C#N)c2)cc1Nc1ccc2ncn(C)c(=O)c2c1 , the logged kinase still bound, per cent of control turned out to be 0.15%

Sure, the documented kinase still bound, per cent of control for CCCS(=O)(=O)Nc1ccc(F)c(C(=O)c2c[nH]c3ncc(-c4ccc(Cl)cc4)cc23)c1F is 43%

Data credit: the kinase profiling compilation of Christmann-Franck et al. (2016)
